Field: cytotoxicity at 70.5 h. Provide a value for each of the compounds that follow.
# protocolSummary: Human HepG2 cell viability assay in 384 well format
# Assay type: toxicity, cell-based
# Parameters: dose 125 nL, time 70.5 hour; concentration not given beside the values
# experimentalSetup: HepG2 cells, read-out: Inhibition
Report as a plain number; the unit % is understood.

Request: What value of measured cytotoxicity at 70.5 h is listed for Cc1cccc(CN2CCCCC2c2n[nH]cc2-c2cc(C)no2)c1 (stereo unspecified) ?
Response: -6.6

Request: Note, next up: CC(C)COCCC(=O)Nc1cccnc1-n1cncn1
Response: -6.91

Request: Note, next up: CN(C)Cc1ccc(C2CCCCN2C(=O)c2cc(C3CC3)n[nH]2)cc1 (stereo unspecified)
Response: -5

Request: Note, next up: CCc1sc(C(=O)Nc2cnn(CC(N)=O)c2)cc1C
Response: 14.8

Request: Note, next up: Cc1nc(NC(=O)C(C)S(C)(=O)=O)sc1Cc1ccc(F)cc1 (stereo unspecified)
Response: 7.99

Request: Note, next up: CCOc1ccc2c(c1)C=C(C(=O)NC(C)Cn1cccn1)CO2 (stereo unspecified)
Response: -5.74

Request: Note, next up: CC1CCN(S(=O)(=O)N2Cc3ccccc3C[C@H]2C(N)=O)CC1
Response: -4.51

Request: Note, next up: CCCOc1ccc(CNC(=O)N2CCC(C(N)=O)C2)cc1 (stereo unspecified)
Response: -0.602

Request: Note, next up: O=c1ccc2c([nH]1)CCN(S(=O)(=O)c1ccc3c(c1)OCCO3)C2
Response: 1.39

Request: Note, next up: C[C@@H]1CN(C(=O)C2(Cn3cccn3)CC2)C[C@@]1(O)C1CCC1
Response: -0.77

Request: Note, next up: CCN(CCNC(=O)c1cccnc1OCCOC)C1CC1
Response: 0.553

----------
# protocolSummary: Human HepG2 cell viability assay in 384 well format
# Type: toxicity, cell-based
# Set-up: dose 125 nL, time 70.5 hour; concentration not given beside the values
# experimentalSetup: HepG2 cells, read-out: Inhibition
Field: cytotoxicity at 70.5 h. Provide a value for each of the molecules that follow.
Report as a plain number; the unit % is understood.

Request: What value of measured cytotoxicity at 70.5 h is listed for O=C(O)c1cc2c(nc1-c1ccsc1)CCN(C1CCOC1)CC2 (configuration not stated) ?
Response: -12.7

Request: Note, next up: Cc1ncsc1C(=O)NC1CCN(Cc2cccc3c2OCCO3)CC1
Response: -0.651

Request: Note, next up: O=C(Cn1ccc2ncccc2c1=O)N1CCCCC1
Response: 13.3

Request: Note, next up: CC[C@H]1CN2CC[C@H]1C[C@@H]2CNCc1ccc(OC)cc1
Response: -3.31

Request: Note, next up: CCC(NC(=O)C(C)C)c1ccccc1C (configuration not stated)
Response: -5.31

Request: Note, next up: Cc1nc2cc(CNC(=O)C3CC(=O)N(CCN(C)C)C3)ccc2n1C (configuration not stated)
Response: -2.99

Request: Note, next up: Cc1noc(C2CCN(C(C)c3nc(C4CC4)no3)CC2)n1 (configuration not stated)
Response: -16.9

Request: Note, next up: COc1ccc(-c2cc3cccn(CC(=O)N4CCOCC4)c-3n2)cc1
Response: 10.5

Request: Note, next up: CSCCC(=O)NCc1cc2n(n1)CCN(C(=O)N(C)C)C2
Response: -8.07

Request: Note, next up: O=C(NCC1(O)COCCN(Cc2cccc(O)c2)C1)c1cscn1 (configuration not stated)
Response: -7.81

Request: Note, next up: CN(C)C(=O)CN1CCc2onc(-c3ccccc3F)c2C1
Response: 48.8

Request: Note, next up: O=C(O)C1CN(c2cccc(F)c2)CCO1 (configuration not stated)
Response: 14.9

----------
# protocolSummary: Human HepG2 cell viability assay in 384 well format
# Assay type: toxicity, cell-based
# Parameters: dose 125 nL, time 70.5 hour; concentration not given beside the values
# experimentalSetup: HepG2 cells, read-out: Inhibition
Field: cytotoxicity at 70.5 h. Provide a value for each of the compounds that follow.
Report as a plain number; the unit % is understood.

Request: What value of measured cytotoxicity at 70.5 h is listed for Nc1nonc1C(=O)N1Cc2ccccc2OC2(CCOCC2)C1 ?
Response: 2.48

Request: Note, next up: CN1CCN(c2cc(CNC(=O)c3cccnc3O)ccn2)CC1
Response: -1.85

Request: Note, next up: N#Cc1cccc(C(=O)N2CCc3ncc(Cn4cccn4)n3CC2)c1
Response: 8.26

Request: Note, next up: CCN(CC)c1ncc(CNCC2CCCn3ccnc32)s1 (stereo not drawn)
Response: 8.16

Request: Note, next up: O=C(Cc1nc(-c2ccncc2)n[nH]1)NCCCN1CCOCC1
Response: -10.7

Request: Note, next up: CCCC(=O)NC1CCc2c(ccc(=O)n2Cc2csc(C)n2)C1 (stereo not drawn)
Response: -12.5

Request: Note, next up: CCC1=N[C@@]2(CC[C@@H]3CN(C(=O)NCc4ccccc4)C[C@@H]32)C(=O)N1
Response: -7.28

Request: Note, next up: COC[C@@]12CCO[C@@H]1CCN(C(=O)c1ccc(F)c(F)c1)C2
Response: 0.0264

Request: Note, next up: Fc1ccc(-c2nc(CN3CCn4c(nnc4C4CC4)C3)co2)cc1
Response: -8.13

Request: Note, next up: CC(C)OCCCNC(=O)CS(=O)(=O)Cc1ccc(C(C)C)cc1
Response: -0.615

Request: Note, next up: O=S1(=O)NC(c2ccnc(N3CCCC3)n2)=Nc2ccccc21
Response: -3.65

Request: Note, next up: CCNC(=O)c1ccc2c(c1)nc1n2CCN(Cc2ccco2)C1
Response: -16

Request: Note, next up: Nc1cc(-c2cncnc2C2CCN(C(=O)c3ccccc3)C2)ccn1 (stereo not drawn)
Response: 2.08

Request: Note, next up: COc1cc(OC)c(CNC(=O)NCc2ccc(C#N)cc2)c(OC)c1
Response: 3.35

Request: Note, next up: O=C(CCNC(=O)c1ccoc1)Nc1ccc(F)cc1F
Response: -10.2

Request: Note, next up: COc1ncccc1CNC(=O)c1cc(F)cc(Br)c1
Response: -2.19

Request: Note, next up: Cc1cnc(C(=O)N2C[C@@H]3[C@@H](C2)OCC(=O)N3CC2CCCC2)cn1
Response: 15.5

Request: Note, next up: COCc1ccc(CNC(=O)C2=NN(c3ccccc3)C(=O)CN2)cc1
Response: -12.2

Request: Note, next up: Cc1csc(NC(=O)CN2CCCC(Cn3nc(C)nc3C)C2)n1 (stereo not drawn)
Response: -7.51

Request: Note, next up: COC(=O)c1cnn(-c2cc(Oc3cccc(C)c3)ncn2)c1N
Response: 4

Request: Note, next up: CN(C)S(=O)(=O)N1CCN(C(=O)OC(C)(C)C)CC12CCCCC2
Response: -6.87

Request: Note, next up: CC(C)c1n[nH]c(C(=O)Nc2ccnn2C(C)C)c1Br
Response: 45.8

Request: Note, next up: Cc1ccnc(NCc2cccc(OCCN3CCOCC3)c2)n1
Response: 32.7

----------
# protocolSummary: Human HepG2 cell viability assay in 384 well format
# Format: toxicity, cell-based
# Set-up: dose 125 nL, time 70.5 hour; concentration not given beside the values
# experimentalSetup: HepG2 cells, read-out: Inhibition
Field: cytotoxicity at 70.5 h. Provide a value for each of the compounds that follow.

Request: What value of measured cytotoxicity at 70.5 h is listed for O=C([C@H]1C[C@H]2OCC[C@H]2N(C(=O)C2CCOCC2)C1)N1CCCCO1 ?
Response: -2.55%

Request: Note, next up: O=C(c1ccco1)N1CCCC2(C1)CN(c1nncs1)CCO2 (stereo not drawn)
Response: -5.17%

Request: Note, next up: Cc1nnsc1CN(C)C(=O)CN1CC2(CCNCC2)OC1=O
Response: -2.76%

Request: Note, next up: Cc1cc(C)n(CC(=O)N2CCCCC2CCc2cccs2)c(=O)n1 (stereo not drawn)
Response: -13.4%

Request: Note, next up: CCOCC(=O)N1C[C@@H]2CCN(c3cnccn3)C[C@@H]2C1
Response: -3.75%

Request: Note, next up: Cc1n[nH]c(=O)c(C(=O)N2CCN(CCc3cccs3)CC2)c1C
Response: -2.36%

Request: Note, next up: Cc1occc1C(=O)N1Cc2nccn2CC(CN2CCOCC2)C1 (stereo not drawn)
Response: -6.67%

Request: Note, next up: CN(Cc1nccn1C)C(=O)c1cccc(CCC(C)(C)O)c1
Response: 7.23%

Request: Note, next up: CCOC(=O)c1c(NC(=O)CN2CCN(C(C)=O)CC2)sc(C)c1C
Response: -13.3%

Request: Note, next up: O=C(c1ccc2[nH]ccc2c1)N1Cc2nc(CN3CCCC3)oc2C1
Response: -5.17%

Request: Note, next up: CC(=O)N1CC(C(=O)NCCc2ncc(C)s2)C1
Response: -5.34%

Request: Note, next up: CN(Cc1nnc2ccccn12)C(=O)CCC1CCCC1
Response: -8.63%

Request: Note, next up: CC(O)(CN1CCC2(CC1)OCCO2)c1cccc(C(F)(F)F)c1 (stereo not drawn)
Response: -4.13%

Request: Note, next up: c1cc(-c2c[nH]nc2C2CCCCC2)nc(N2CCCCCC2)n1
Response: 2.67%

Request: Note, next up: CCOC1CCN(C(=O)c2csc(S(N)(=O)=O)c2)CC1
Response: -4.71%

Request: Note, next up: CO[C@H]1CCN(Cc2cccs2)[C@@H]2CN(Cc3ccncc3)C[C@H]12
Response: -2.84%

Request: Note, next up: COc1ccc(OCCCNCCn2cccn2)cc1
Response: 22.8%

Request: Note, next up: O=C(NC[C@H]1CC[C@H](c2nnc(-c3cccnc3)o2)CC1)C1CC1
Response: 6.18%

Request: Note, next up: Cc1nnc([C@@H]2CC[C@@H]3[C@@H](CCN3S(=O)(=O)C3CC3)O2)o1
Response: -14%

Request: Note, next up: Cc1ccccc1C1CCN(CCn2cc(-c3cccc(O)c3)nn2)C1 (stereo not drawn)
Response: 29.4%

Request: Note, next up: O=C(NCC1COCc2c(-c3cccnc3)nnn2C1)c1cccs1 (stereo not drawn)
Response: -15.7%

Request: Note, next up: O=C(CCc1ccccn1)N1CCN(C(=O)CC2CCCCC2)CC1
Response: -4.45%

Request: Note, next up: CCn1cc(NC(=O)Nc2ccc3c(c2)OCCO3)cn1
Response: -5.76%
